- assayed-system: UniProt C0HJB3
- Sequence (C0HJB3 1-562 limits assumed): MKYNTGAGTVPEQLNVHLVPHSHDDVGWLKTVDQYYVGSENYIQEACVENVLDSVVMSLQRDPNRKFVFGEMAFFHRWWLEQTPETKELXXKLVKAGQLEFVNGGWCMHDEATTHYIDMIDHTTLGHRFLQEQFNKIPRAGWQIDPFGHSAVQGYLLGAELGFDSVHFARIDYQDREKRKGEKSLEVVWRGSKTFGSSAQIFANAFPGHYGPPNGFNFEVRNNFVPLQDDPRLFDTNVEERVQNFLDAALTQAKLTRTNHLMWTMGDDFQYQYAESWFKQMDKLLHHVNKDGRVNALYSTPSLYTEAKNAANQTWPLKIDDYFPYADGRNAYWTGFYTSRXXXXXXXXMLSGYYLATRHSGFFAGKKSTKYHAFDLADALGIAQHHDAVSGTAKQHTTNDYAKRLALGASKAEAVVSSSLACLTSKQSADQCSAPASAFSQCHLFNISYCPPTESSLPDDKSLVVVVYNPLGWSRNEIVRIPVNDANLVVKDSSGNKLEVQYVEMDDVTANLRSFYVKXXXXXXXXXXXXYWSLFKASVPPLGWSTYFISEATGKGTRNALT
- Sequence (C0HJB3 563-981 partner limits assumed): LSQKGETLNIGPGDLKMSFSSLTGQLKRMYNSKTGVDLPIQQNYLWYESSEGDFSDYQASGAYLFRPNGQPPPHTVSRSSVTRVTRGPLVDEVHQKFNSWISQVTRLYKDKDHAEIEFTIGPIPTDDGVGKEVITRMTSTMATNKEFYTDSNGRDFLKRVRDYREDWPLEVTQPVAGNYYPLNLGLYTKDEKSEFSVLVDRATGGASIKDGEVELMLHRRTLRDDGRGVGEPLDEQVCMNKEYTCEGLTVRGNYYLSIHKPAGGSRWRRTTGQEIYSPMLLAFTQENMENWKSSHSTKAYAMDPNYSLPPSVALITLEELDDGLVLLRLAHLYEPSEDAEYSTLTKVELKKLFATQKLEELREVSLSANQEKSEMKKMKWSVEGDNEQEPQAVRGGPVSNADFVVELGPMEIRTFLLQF
- test-description: Glycosidase inhibition assay, α-mannosidase
- Format: biochemical
- measurement-context: read-out: α-Man % Ra (% remaining activity at 100 µM)
Kindly supply the reported remaining activity at 100 µM values for the records listed here.
Give bare numbers, in %.

Below, 7 molecules whose answers are already recorded.
{"molecule": "CCCCN1C/C=C\\[C@@H](O)[C@H](O)[C@@H](O)C1 [Compound 3]", "remaining activity at 100 µM [%]": 100}
{"molecule": "CCCCCCCCCN1CCC[C@@H](O)[C@H](O)[C@@H](O)C1 [Compound 2, (3S,4S,5R)-1-Nonylazocane-3,4,5-triol]", "remaining activity at 100 µM [%]": 100}
{"molecule": "CCCCN1[C@H](CO)C(O)[C@H]1CO [Compound 22]", "remaining activity at 100 µM [%]": 99}
{"molecule": "CCCCCCCCCN1[C@H](CO)C(O)[C@H]1CO [Compound 23]", "remaining activity at 100 µM [%]": 100}
{"molecule": "CCCCN1CCC[C@@H](O)[C@H](O)[C@@H](O)C1 [Compound 1, (3S,4S,5R)-1-Butylazocane-3,4,5-triol]", "remaining activity at 100 µM [%]": 100}
{"molecule": "CCCCN1[C@@H](CO)C(O)[C@@H]1CO [Compound 26]", "remaining activity at 100 µM [%]": 98}
{"molecule": "CCCCCCCCCN1C/C=C\\[C@@H](O)[C@H](O)[C@@H](O)C1 [Compound 4]", "remaining activity at 100 µM [%]": 100}

Pending molecule:
In plain terms, CCCCCCCCCN1[C@@H](CO)C(O)[C@@H]1CO [Compound 27] has a documented remaining activity at 100 µM of 99
